- assayed-target: GST fusion human ERK2 protein (Homo sapiens, UniProt P28482)
- Construct: purchased Carna Biosciences, Inc; host or cells: E. coli expression system
- Sequence (P28482 whole entry, the tested form may be a part): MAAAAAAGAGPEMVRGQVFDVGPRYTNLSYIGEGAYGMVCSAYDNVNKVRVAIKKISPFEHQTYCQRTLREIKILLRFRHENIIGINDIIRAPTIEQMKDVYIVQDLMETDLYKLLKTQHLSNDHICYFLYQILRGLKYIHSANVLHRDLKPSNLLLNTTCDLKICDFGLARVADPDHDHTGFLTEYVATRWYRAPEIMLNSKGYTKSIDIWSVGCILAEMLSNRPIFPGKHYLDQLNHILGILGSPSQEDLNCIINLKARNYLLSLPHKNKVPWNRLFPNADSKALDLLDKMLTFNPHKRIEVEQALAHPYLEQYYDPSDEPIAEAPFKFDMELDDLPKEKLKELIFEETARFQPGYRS
- assay: ERK2 enzyme assay (1)
- Format: biochemical
- particulars: 2.5 nmol/L ERK2, ATP 43.1 μmol/L; read-out: ERK2 enzyme inhibitory activity (1)
Where a name gives a salt, the structure may show the parent alone.
# IC50 per entry

compound: COc1ccccc1Nc1ccnc2ccc(Nc3nnc(C(C)C)s3)nc12
IC50: 1 to 10 µM
//
compound: CS(=O)(=O)N1CCCC(Nc2cnc3ccc(Nc4nnc(C5CCCC5)s4)nc3c2)C1 (centres unmarked)
IC50: 1 to 10 µM
//
compound: COc1ccc(-c2cnc3ccc(Nc4nc(C)cs4)nc3c2)cc1OC
IC50: 10 to 50 µM
//
compound: CS(=O)(=O)N1CCC(Nc2cnc3ccc(Nc4nnc(C5CCCC5)s4)nc3c2)C1 (centres unmarked)
IC50: < 1 µM
//
compound: Cn1cc(-c2cnc3ccc(Nc4nnc(NS(=O)(=O)c5ccccc5)s4)nc3c2)cn1 [Example 0177, hydrochloride]
IC50: < 1 µM

###

# IC50 per entry
- assayed-target: human PI3Kα protein (Homo sapiens)
- Construct: purchased Carna Biosciences, Inc; host or cells: baculovirus expression system
- assay: PI3Kα enzyme assay (ADP-Glo)
- Assay type: biochemical
- particulars: 4.5 nmol/L PI3Kα, PIP2 50 μmol/L, ATP 100 μmol/L; read-out: PI3Kα enzyme inhibitory activity

record-smiles: O=C(CO)N1CCN(c2cnc3ccc(Nc4nnc(C5CCCC5)s4)nc3c2)CC1
IC50: 1000 to 10000 nM
//
record-smiles: CC(C)c1nnc(Nc2ccc3ncc(-c4cn(C)nc4C4CC4)cc3n2)s1
IC50: < 1000 nM
//
record-smiles: c1ncc(OCCCN2CCOCC2)cc1Nc1cnc2ccc(Nc3nnc(C4CCCC4)s3)nc2c1
IC50: < 1000 nM

###

- assayed-target: human PI3Kα protein (Homo sapiens)
- Construct: purchased Carna Biosciences, Inc; host or cells: baculovirus expression system
- assay: PI3Kα enzyme assay (ADP-Glo)
- Type: biochemical
- particulars: 4.5 nmol/L PI3Kα, PIP2 50 μmol/L, ATP 100 μmol/L; read-out: PI3Kα enzyme inhibitory activity
Where a name gives a salt, the structure may show the parent alone.
endpoint-label: IC50

compound: CC(C)c1cnnc(Nc2ccc3ncc(Nc4cncc(OCCN5CCOCC5)c4)cc3n2)c1
reported-result: < 1 µM
//
compound: CCc1nnc(Nc2ccc3ncc(-c4cnn(C)c4)cc3n2)s1
reported-result: < 1 µM
//
compound: CCc1cnnc(Nc2ccc3ncc(-c4cnn(CCCN5CCOCC5)c4)cc3n2)c1
reported-result: < 1 µM
//
compound: c1cc(Nc2cnc3ccc(Nc4nnc(C5CCCC5)s4)nc3c2)cnn1
reported-result: < 1 µM
//
compound: c1cnnc(Nc2ccc3ncc(-c4cnn(CCCN5CCCC5)c4)cc3n2)c1
reported-result: < 1 µM
//
compound: c1ccc(CNc2cnc3ccc(Nc4nnc(C5CCCC5)s4)nc3c2)nc1
reported-result: 1 to 10 µM
//
compound: COCc1nnc(Nc2ccc3ncc(-c4cnn(C)c4)cc3n2)s1
reported-result: 1 to 10 µM
//
compound: c1ncc(OCCN2CCCC2)cc1Nc1cnc2ccc(Nc3nnc(C4CCCC4)s3)nc2c1
reported-result: < 1 µM
//
compound: CS(=O)(=O)N1CCCC(Nc2cnc3ccc(Nc4nnc(C5CCCC5)s4)nc3c2)C1 (centres unmarked)
reported-result: < 1 µM
//
compound: Oc1cnc2ccc(Nc3nnc(C4CCCC4)s3)nc2c1 [Example 0040, hydrochloride]
reported-result: 10 to 50 µM
//
compound: c1ncc(OCCCN2CCCC2)cc1Nc1cnc2ccc(Nc3nnc(C4CCCC4)s3)nc2c1
reported-result: < 1 µM
//
compound: Cn1cc(-c2cnc3ccc(Nc4nnc(N5CCCC5)s4)nc3c2)cn1
reported-result: 1 to 10 µM
//
compound: Cn1cc(-c2cnc3ccc(Nc4cncs4)nc3c2)cn1
reported-result: 1 to 10 µM
//
compound: CC(=O)N1CCC(Nc2cnc3ccc(Nc4nnc(C5CCCC5)s4)nc3c2)CC1
reported-result: < 1 µM

###

- assayed-target: human PI3Kα protein (Homo sapiens, UniProt P42336)
- Construct: purchased Carna Biosciences, Inc; host or cells: baculovirus expression system
- Sequence (P42336 whole entry): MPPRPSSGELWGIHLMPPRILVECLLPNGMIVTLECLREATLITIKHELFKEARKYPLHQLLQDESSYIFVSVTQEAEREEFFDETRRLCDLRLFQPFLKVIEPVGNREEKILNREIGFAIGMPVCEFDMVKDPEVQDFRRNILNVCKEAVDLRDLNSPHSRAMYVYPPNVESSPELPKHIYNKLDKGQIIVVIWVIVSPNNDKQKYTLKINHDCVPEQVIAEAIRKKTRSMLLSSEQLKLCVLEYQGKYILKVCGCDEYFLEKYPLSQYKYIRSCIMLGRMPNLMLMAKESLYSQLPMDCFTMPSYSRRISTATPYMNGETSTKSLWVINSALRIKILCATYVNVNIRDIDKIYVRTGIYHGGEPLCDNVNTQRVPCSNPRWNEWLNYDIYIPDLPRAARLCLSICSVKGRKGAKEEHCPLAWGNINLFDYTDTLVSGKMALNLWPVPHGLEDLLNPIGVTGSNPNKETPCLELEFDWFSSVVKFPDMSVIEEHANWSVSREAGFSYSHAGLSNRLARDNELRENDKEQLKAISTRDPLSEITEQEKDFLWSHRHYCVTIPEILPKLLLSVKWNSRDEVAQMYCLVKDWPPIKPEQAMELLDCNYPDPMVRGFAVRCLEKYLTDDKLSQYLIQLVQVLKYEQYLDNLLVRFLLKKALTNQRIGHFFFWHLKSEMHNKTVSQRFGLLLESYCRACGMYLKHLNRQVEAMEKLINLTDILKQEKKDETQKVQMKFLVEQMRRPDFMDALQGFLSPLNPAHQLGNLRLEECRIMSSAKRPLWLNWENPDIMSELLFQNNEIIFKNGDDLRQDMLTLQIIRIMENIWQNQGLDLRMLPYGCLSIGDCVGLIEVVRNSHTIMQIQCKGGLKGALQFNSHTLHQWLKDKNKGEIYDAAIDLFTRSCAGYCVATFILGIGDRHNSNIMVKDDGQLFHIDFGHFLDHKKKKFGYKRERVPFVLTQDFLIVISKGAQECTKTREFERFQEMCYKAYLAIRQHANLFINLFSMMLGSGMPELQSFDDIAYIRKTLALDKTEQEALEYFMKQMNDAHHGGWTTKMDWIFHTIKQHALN
- Sequence (P27986 whole entry partner): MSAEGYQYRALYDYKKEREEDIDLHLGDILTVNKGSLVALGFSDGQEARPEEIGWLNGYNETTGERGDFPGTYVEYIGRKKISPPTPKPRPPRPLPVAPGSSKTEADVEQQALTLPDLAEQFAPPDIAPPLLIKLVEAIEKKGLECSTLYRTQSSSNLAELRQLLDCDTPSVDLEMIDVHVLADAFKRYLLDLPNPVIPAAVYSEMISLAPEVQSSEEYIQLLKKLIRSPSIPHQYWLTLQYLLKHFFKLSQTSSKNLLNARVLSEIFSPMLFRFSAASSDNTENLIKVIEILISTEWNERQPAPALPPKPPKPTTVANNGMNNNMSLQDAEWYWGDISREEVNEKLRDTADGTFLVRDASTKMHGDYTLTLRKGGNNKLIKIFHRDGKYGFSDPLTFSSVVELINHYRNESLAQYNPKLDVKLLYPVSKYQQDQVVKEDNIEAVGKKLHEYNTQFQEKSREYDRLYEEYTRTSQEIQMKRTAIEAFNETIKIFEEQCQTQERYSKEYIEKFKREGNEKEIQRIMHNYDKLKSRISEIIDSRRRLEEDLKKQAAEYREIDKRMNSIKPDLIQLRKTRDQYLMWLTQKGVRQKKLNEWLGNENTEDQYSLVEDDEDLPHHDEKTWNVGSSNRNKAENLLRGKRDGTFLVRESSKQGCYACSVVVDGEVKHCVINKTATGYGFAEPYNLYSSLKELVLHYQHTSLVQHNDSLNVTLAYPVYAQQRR
- assay: PI3Kα enzyme assay (ADP-Glo)
- Assay type: biochemical
- particulars: read-out: PI3Kα enzyme inhibitory activity
pIC50: −log10 of the molar value.
# pIC50 per entry

compound: CC(=O)N1CCC(n2cc(-c3cnc4ccc(Nc5cc(C(C)C)cnn5)nc4c3)cn2)CC1
assayed-target: human PI3Kα protein (Homo sapiens, UniProt P42336)
pIC50: > 6.00
--
compound: CC(=O)N1CC=C(c2cnc3ccc(Nc4cc(C(C)C)cnn4)nc3c2)CC1
assayed-target: human PI3Kα protein (Homo sapiens, UniProt P42336)
pIC50: > 6.00
--
compound: CC(C)c1cnnc(Nc2ccc3ncc(-c4cn(C)nc4-c4ccnc(OCCN(C)C)c4)cc3n2)c1
assayed-target: human PI3Kα protein (Homo sapiens, UniProt P42336)
pIC50: > 6.00
--
compound: CC(C)c1cnnc(Nc2ccc3ncc(-c4cnn(CC(CN5CCOCC5)OCc5ccccc5)c4)cc3n2)c1 (centres unmarked)
assayed-target: human PI3Kα protein (Homo sapiens, UniProt P42336)
pIC50: > 6.00
--
compound: CCOC(=O)N1CCN(CCCn2cc(-c3cnc4ccc(Nc5cc(C(C)C)cnn5)nc4c3)cn2)CC1
assayed-target: human PI3Kα protein (Homo sapiens, UniProt P42336)
pIC50: > 6.00
--
compound: CC(C)C(=O)N1CCC(Cn2cc(-c3cnc4ccc(Nc5cc(C(C)C)cnn5)nc4c3)cn2)CC1
assayed-target: human PI3Kα protein (Homo sapiens, UniProt P42336)
pIC50: > 6.00
--
compound: CCC(CC)c1cnnc(Nc2ccc3ncc(-c4cnn(CCOC5CNC5)c4)cc3n2)c1
assayed-target: human PI3Kα protein (Homo sapiens, UniProt P42336)
pIC50: > 6.00
--
compound: CC(C)c1nnc(Nc2ccc3nccc(-c4ccccc4)c3n2)s1
assayed-target: human PI3Kα protein (Homo sapiens, UniProt P42336)
pIC50: 5.00 to 6.00
--
compound: C=C(C)c1cnnc(Nc2ccc3ncc(-c4cnn(C)c4)cc3n2)c1
assayed-target: human PI3Kα protein (Homo sapiens, UniProt P42336)
pIC50: > 6.00
--
compound: CC(C)c1cnnc(Nc2ccc3ncc(-c4cc(-c5ccccn5)nn4C)cc3n2)c1
assayed-target: human PI3Kα protein (Homo sapiens, UniProt P42336)
pIC50: 5.00 to 6.00
--
compound: COCCN(C)c1cnc2ccc(Nc3nnc(C4CCCC4)s3)nc2c1
assayed-target: human PI3Kα protein (Homo sapiens, UniProt P42336)
pIC50: 5.00 to 6.00

###

- assayed-target: human PI3Kα protein (Homo sapiens)
- Construct: purchased Carna Biosciences, Inc; host or cells: baculovirus expression system
- assay: PI3Kα enzyme assay (ADP-Glo)
- Format: biochemical
- particulars: read-out: PI3Kα enzyme inhibitory activity
pIC50: −log10 of the molar value. Structures can show the parent of a compound that is named as a salt.
endpoint-label: pIC50

molecule: CC(C)c1cnnc(Nc2ccc3ncc(N4CC(F)(F)C4)cc3n2)c1
assayed-target: human PI3Kα protein (Homo sapiens)
reported-result: > 6.00
--
molecule: CC(C)c1cnnc(Nc2ccc3ncc(-c4cnn(CCCN5CC(C#N)C5)c4)cc3n2)c1
assayed-target: human PI3Kα protein (Homo sapiens)
reported-result: > 6.00
--
molecule: CCC(C)(C)c1cnnc(Nc2ccc3ncc(-c4cnn(CCCN5CCCC5)c4)cc3n2)c1
assayed-target: human PI3Kα protein (Homo sapiens)
reported-result: > 6.00
--
molecule: Cc1nnc(Nc2ccc3ncc(-c4cnn(CCCN5CCCC5)c4)cc3n2)s1
assayed-target: human PI3Kα protein (Homo sapiens)
reported-result: > 6.00
--
molecule: C1=C(c2cnc3ccc(Nc4nnc(C5CCCC5)s4)nc3c2)CCNC1 [Example 0330, hydrochloride]
assayed-target: human PI3Kα protein (Homo sapiens)
reported-result: 5.00 to 6.00
--
molecule: Cn1cc(-c2cnc3ccc(Nc4ccccc4N)nc3c2)cn1
assayed-target: human PI3Kα protein (Homo sapiens)
reported-result: 4.30 to 5.00
--
molecule: CC(C)c1cnnc(Nc2ccc3ncc(-c4cnn(Cc5cscn5)c4)cc3n2)c1
assayed-target: human PI3Kα protein (Homo sapiens)
reported-result: > 6.00

###

- assayed-target: human PI3Kα protein (Homo sapiens, UniProt P42336)
- Construct: purchased Carna Biosciences, Inc; host or cells: baculovirus expression system
- assay: PI3Kα enzyme assay (ADP-Glo)
- Assay type: biochemical
- particulars: read-out: PI3Kα enzyme inhibitory activity
- Description: In a PI3Kα enzyme assay, a product (manufactured by Carna Biosciences, Inc.) obtained by biotinylating a human PI3Kα protein produced by using a baculovirus expression system was used. […] The inhibitory activities of the compounds were evaluated using IC50 (50% inhibitory concentration). The IC50 was calculated using XLFIT (trade name, manufactured by ID Business Solutions).
endpoint-label: IC50

compound: Cn1cc(-c2cnc3ccc(Nc4nnc(CS(C)(=O)=O)s4)nc3c2)cn1
endpoint-label: IC50
reported-result: 1000 to 10000 nM
//
compound: CC(C)c1cnnc(Nc2ccc3ncc(-c4cnccn4)cc3n2)c1
endpoint-label: IC50
reported-result: 1000 to 10000 nM
//
compound: COCCn1cc(-c2cnc3ccc(Nc4cc(C(C)C)cnn4)nc3c2)cn1
endpoint-label: IC50
reported-result: < 1000 nM
//
compound: CC(C)c1cnnc(Nc2ccc3ncc(N4CCC(C#N)C4)cc3n2)c1 (stereo not drawn)
endpoint-label: IC50
reported-result: < 1000 nM
//
compound: CC(C)c1cnnc(Nc2ccc3ncc(-c4cn(C)nc4NC4COC4)cc3n2)c1
endpoint-label: IC50
reported-result: < 1000 nM
//
compound: CC(C)c1cnnc(Nc2ccc3ncc(NC4CN(C(=O)OC(C)(C)C)C4)cc3n2)c1
endpoint-label: IC50
reported-result: 1000 to 10000 nM
//
compound: c1cnnc(Nc2cnc3ccc(Nc4nnc(C5CCCC5)s4)nc3c2)c1
endpoint-label: IC50
reported-result: < 1000 nM
//
compound: c1cncc(Cc2nnc(Nc3ccc4ncc(-c5cnn(CCCN6CCCC6)c5)cc4n3)s2)c1
endpoint-label: IC50
reported-result: < 1000 nM
//
compound: Cc1cc(-c2nn(C)cc2-c2cnc3ccc(Nc4cc(C(C)C)cnn4)nc3c2)ccn1
endpoint-label: IC50
reported-result: < 1000 nM
//
compound: CC(C)c1cnnc(Nc2ccc3ncc(-c4cnn(CCCN5CC(O)(CCO)C5)c4)cc3n2)c1
endpoint-label: IC50
reported-result: < 1000 nM
//
compound: CC(C)c1ccnc(Nc2ccc3ncc(-c4cnn(C)c4)cc3n2)c1
endpoint-label: IC50
reported-result: < 1000 nM
//
compound: F[C@H]1CCN(CCCn2cc(-c3cnc4ccc(Nc5nnc(C6CCCC6)s5)nc4c3)cn2)C1
endpoint-label: IC50
reported-result: < 1000 nM
//
compound: c1nc2ccc(Nc3nnc(CC4CC4)s3)nc2cc1-c1cnn(CCCN2CCCC2)c1
endpoint-label: IC50
reported-result: < 1000 nM
//
compound: C=Cc1cnc2ccc(Nc3cc(C(C)C)cnn3)nc2c1
endpoint-label: IC50
reported-result: 1000 to 10000 nM
//
compound: CC(C)c1cnnc(Nc2ccc3ncc(-n4cnc(CCN)c4)cc3n2)c1
endpoint-label: IC50
reported-result: 1000 to 10000 nM
//
compound: CC(C)Cc1cnnc(Nc2ccc3ncc(-c4cnn(CCCN5CCCC5)c4)cc3n2)c1
endpoint-label: IC50
reported-result: < 1000 nM
//
compound: CC(C)c1cnnc(Nc2ccc3ncc(-c4cnn(CCCN5CCOC(C)(C)C5)c4)cc3n2)c1
endpoint-label: IC50
reported-result: < 1000 nM
//
compound: CC(C)c1cnnc(Nc2ccc3ncc(-c4cnn(CCCN5CC(OCCF)C5)c4)cc3n2)c1
endpoint-label: IC50
reported-result: < 1000 nM
//
compound: COCCN(CCOC)c1nn(C)cc1-c1cnc2ccc(Nc3cc(C(C)C)cnn3)nc2c1
endpoint-label: IC50
reported-result: 1000 to 10000 nM
//
compound: Cc1cncc(-c2nn(C)cc2-c2cnc3ccc(Nc4cc(C(C)C)cnn4)nc3c2)c1
endpoint-label: IC50
reported-result: < 1000 nM
//
compound: CC(C)c1cnnc(Nc2ccc3ncc(N4CCC4)cc3n2)c1
endpoint-label: IC50
reported-result: 1000 to 10000 nM
//
compound: CC(C)c1cnnc(Nc2ccc3ncc(-c4cnn(CCCN(C)CC(=O)OC(C)(C)C)c4)cc3n2)c1
endpoint-label: IC50
reported-result: < 1000 nM
//
compound: Cc1ccc(-c2nn(C)cc2-c2cnc3ccc(Nc4cc(C(C)C)cnn4)nc3c2)cn1
endpoint-label: IC50
reported-result: < 1000 nM
//
compound: CC(C)c1cnnc(Nc2ccc3ncc(N4CC(OCCF)C4)cc3n2)c1
endpoint-label: IC50
reported-result: < 1000 nM
//
compound: c1cc(-c2ccnc3ccc(Nc4nncs4)nc23)ccn1
endpoint-label: IC50
reported-result: < 1000 nM
//
compound: Cn1cc(-c2cnc3ccc(Nc4nnc(C5CCNC5)s4)nc3c2)cn1 (stereo not drawn)
endpoint-label: IC50
reported-result: 1000 to 10000 nM
//
compound: Cn1cc(-c2cnc3ccc(Nc4cccc(N)c4)nc3c2)cn1
endpoint-label: IC50
reported-result: 1000 to 10000 nM
//
compound: CC(C)c1cnnc(Nc2ccc3ncc(-c4cnn(C[C@H]5CCC(=O)N5C)c4)cc3n2)c1
endpoint-label: IC50
reported-result: < 1000 nM
//
compound: CC(C)c1cnnc(Nc2ccc3ncc(-c4cnn(CCCO)c4)cc3n2)c1
endpoint-label: IC50
reported-result: < 1000 nM
//
compound: Cc1cccc(Cn2cc(-c3cnc4ccc(Nc5cc(C(C)C)cnn5)nc4c3)cn2)n1
endpoint-label: IC50
reported-result: < 1000 nM
